experimental-details: Saturation mutagenesis of SEQ ID NO:109: dicamba decarboxylation activity of point mutants (CO2 released), fold of backbone (Tables 7, 8, Megatable 1)
condition-notes: decarboxylation activity (CO2 released) of point mutant vs unmutated backbone protein; backbone SEQ ID NO: 109
# key: entry, value: Fold Activity
Answer format: numeric, fold implied, no suffix.

>  <molecule>
104 (protein, Plasmodium Vivax) MANILQEPIDFLKKEELKNIDLSQMSKKERYKIWKRIPKCELHCHLDLCFSADFFVSCIRKYNLQPNLSDEEVLDYYLFAKGGKSLGEFVEKAIKVADIFHDYEVIEDLAKHAVFNKYKEGVVLMEFRYSPTFVAFKYNLDIELIHQAIVKGIKEVVELLDHKIHVALMCIGDTGHEAANIKASADFCLKHKADFVGFDHGGHEVDLKEYKEIFDYVRESGVPLSVHAGEDVTLPNLNTLYSAIQVLKVERIGHGIRVAESQELIDMVKEKNILLEVCPISNVLLKNAKSMDTHPIRQLYDAGVKVSVNSDDPGMFLTNINDDYEELYTHLNFTLEDFMKMNEWALEKSFMDSNIKDKIKNLYF

>  <Fold Activity (fold)>
2.1

$$$$

Lab note: next molecule to report on.
Query 50 (protein, listed as Streptomyces sp.) MARIVTLEEHWTDPAVTAAGMPNLLDHVPGYAAAFDPDTGMPYPRHPELLEDLGAARIADMDRHGITTQVLSLVNTFLPADVAPRLTAAANDAMAAAVEAFPGRFAAFATLPTAVPGAAADELRRCVGELGFVGTMIMGRTDGEFLDQPRFDPILRAASDLSVPVYLHPAPPPVAVSEASYAGGLSPAVSAAFRLAAWGWHQETAVHLLHLVLAGVLDRYPGLQFVLGHWGEFIPFYLDRLDESMPRRMTGLDRTFREYFRDNVFITPSGMFSQAQLRYCADTVGTDRIIHSVDFPMLGNEGAVSFLTDSHLSREDQEKIAHGNADALLGLG yields Fold Activity of 1.7
